B1: Pistol ribozyme (parent)
chain: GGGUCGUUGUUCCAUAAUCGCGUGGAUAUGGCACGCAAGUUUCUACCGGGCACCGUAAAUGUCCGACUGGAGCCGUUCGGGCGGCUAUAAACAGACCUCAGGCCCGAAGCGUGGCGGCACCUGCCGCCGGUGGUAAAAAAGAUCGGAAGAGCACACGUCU

Variants of: B1
protocol-notes: aptazyme ON/OFF ratio, guanine; higher = stronger switching; co-transcriptional cleavage with and without guanine
observable: aptazyme ON/OFF ratio
The answer should be a number; do not append a unit.

U7G G9C U10G C12A C13A: 1.23
U7A G9U U11C C12U C13A: 1.2
U7C U8G G9C U10A C12A C13A: 1.22

Provide one value: measured aptazyme ON/OFF ratio of U10G U11A C12U
1.15

Provide one value: measured aptazyme ON/OFF ratio of U7G U8C U11G C12U C13U
1.22

Provide one value: measured aptazyme ON/OFF ratio of U7C U8C U10C U11G C12U C13G
1.23

Provide one value: measured aptazyme ON/OFF ratio of U7G U8G G9C U10A C12A C13A
1.03

Provide one value: measured aptazyme ON/OFF ratio of U7C U8C G9A U10C U11C C12U C13U
1.32

Provide one value: measured aptazyme ON/OFF ratio of U8A G9U U10A U11C C13U
1.02

Provide one value: measured aptazyme ON/OFF ratio of U7G G9A U10A U11A C12G
1.2

Provide one value: measured aptazyme ON/OFF ratio of U7A G9C U10C U11C C12U C13U
0.994

Provide one value: measured aptazyme ON/OFF ratio of U7A U8A G9C U10C U11C C12A C13G
1.01
